System: Colletotricum lagenarium
protocol-notes: Cucumber Anthracnose (COLLLA) whole-plant disease control test
Format: in vivo
details: Cucumis sativus, foliar; 200 ppm applied to foliage of cucumber; inoculated one day after treatment; read-out: COLLLA disease control
property-label: pest or weed control at 200 ppm

Sample records with pest or weed control at 200 ppm:
c1csc(Oc2ccc(CCNc3ncnc4sccc34)cc2)n1 = 50 to 79%
FC(F)(F)COc1ccnc(Oc2ccc(CCNc3ncnc4scc(Cl)c34)cc2)n1 = 0 to 49%
CO/N=C(\C)c1cnc(Oc2ccc(CCNc3ncnc4scc(Cl)c34)cc2)s1 = 50 to 79%
Clc1nccc(Oc2ccc(CCNc3ncnc4scc(Cl)c34)cc2)n1 = 0 to 49%
[O-][n+]1ccccc1Oc1ccc(CCNc2ncnc3scc(Cl)c23)cc1 = 0 to 49%

Give me pest or weed control at 200 ppm for each of these compounds, listed below.
1. COC(=O)c1cccc(Oc2ccc(CCNc3ncnc4scc(Cl)c34)cc2)n1
2. COc1cc(C#N)cc(Oc2ccc(CCNc3ncnc4scc(Cl)c34)cc2)n1

Result:
0 to 49%
50 to 79%

# map each compound to its pest or weed control at 200 ppm
1. Brc1csc2ncnc(NCCc3ccc(Oc4ncnc5scc(Br)c45)cc3)c12
2. COC(=O)c1ccc(Oc2ccc(CCNc3ncnc4scc(Cl)c34)cc2)nc1
3. Clc1csc2ncnc(NCCc3ccc(Oc4nc(Br)ns4)cc3)c12
4. CCOC(=O)c1cccc(Oc2ccc(CCNc3ncnc4scc(Cl)c34)cc2)n1
5. Cc1cc(OC(F)F)cnc1Oc1ccc(CCNc2ncnc3scc(Cl)c23)cc1
6. CCc1ncnc(Oc2ccc(CCNc3ncnc4scc(Cl)c34)cc2)c1Cl
7. Cc1noc2ncnc(Oc3ccc(CCNc4ncnc5scc(Cl)c45)cc3)c12
8. FC(F)(F)c1ncccc1Oc1ccc(CCNc2ncnc3scc(Cl)c23)cc1

Result:
50 to 79%
0 to 49%
50 to 79%
0 to 49%
80 to 100%
50 to 79%
0 to 49%
50 to 79%
